Molecular target: TPM3-TRKA fusion protein (Homo sapiens, UniProt P04629)
Construct: The resulted chimeric proteins always retain the kinase domain of TRK proteins; TPM3 (fusion partner, N-terminal part of tropomyosin alpha-3, P06753); endogenous in cells; host or cells: KM12 colon cancer cells; the other entry of the earlier key: TPM3 (P06753, Tropomyosin alpha-3 chain)
Sequence (P04629 with tags, fused parts or gaps): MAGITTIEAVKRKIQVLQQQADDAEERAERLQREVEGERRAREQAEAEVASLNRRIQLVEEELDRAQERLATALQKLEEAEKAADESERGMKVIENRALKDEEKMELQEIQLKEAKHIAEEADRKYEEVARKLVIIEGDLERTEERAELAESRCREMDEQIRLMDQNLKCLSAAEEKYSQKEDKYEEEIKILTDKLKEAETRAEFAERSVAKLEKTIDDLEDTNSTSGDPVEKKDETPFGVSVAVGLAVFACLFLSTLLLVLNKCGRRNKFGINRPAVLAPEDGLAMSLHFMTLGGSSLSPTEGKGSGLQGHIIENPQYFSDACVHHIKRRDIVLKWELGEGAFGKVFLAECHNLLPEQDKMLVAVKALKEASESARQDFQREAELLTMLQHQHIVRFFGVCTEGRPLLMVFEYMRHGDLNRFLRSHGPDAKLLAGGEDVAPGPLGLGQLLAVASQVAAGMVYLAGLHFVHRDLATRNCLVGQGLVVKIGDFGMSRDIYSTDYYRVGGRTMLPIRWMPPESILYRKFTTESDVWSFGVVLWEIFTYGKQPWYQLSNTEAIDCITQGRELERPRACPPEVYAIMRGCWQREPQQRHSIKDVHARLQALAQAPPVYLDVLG
Experiment: TPM3-TRKA fusion protein levels in KM12 cells (Western blot)
Type: cell-based
Settings: 16 h; TPM3-TRKA degradation in KM12 cells at 10 nM compound, category of percentage degradation; read-out: Degradation (at 10 nM)
Consider the following compounds and their measured percent degradation of TPM3-TRKA protein at 0.01 µM readings.
Experimental endpoint: percent degradation of TPM3-TRKA protein at 0.01 µM

| Compound | Result |
| --- | --- |
| O=C1CCC(N2C(=O)c3cccc(NCCOCCOCCOCCOCCOCCC(=O)N4CCN(c5ccc(C(=O)Nc6n[nH]c7ccc(Cc8cc(F)cc(F)c8)cc67)c(NC6CCOCC6)c5)CC4)c3C2=O)C(=O)N1 (stereo not drawn) | > 80% |
| O=C1CCC(N2C(=O)c3ccc(CN4CC(CN5CCN(c6ccc(C(=O)Nc7n[nH]c8ccc(Cc9cc(F)cc(F)c9)cc78)c(NC7CCOCC7)c6)CC5)C4)cc3C2=O)C(=O)N1 (stereo not drawn) | > 80% |
| O=C1CCC(N2C(=O)c3ccc(NCCCCC(=O)N4CCN(c5ccc(C(=O)Nc6n[nH]c7ccc(Cc8cc(F)cc(F)c8)cc67)c(NC6CCOCC6)c5)CC4)cc3C2=O)C(=O)N1 (stereo not drawn) | > 80% |

###

Reported percent degradation of TPM3-TRKA protein at 0.01 µM values follow for various compounds
Target: TPM3-TRKA fusion protein (Homo sapiens, UniProt P04629)
Construct: The resulted chimeric proteins always retain the kinase domain of TRK proteins; TPM3 (fusion partner, N-terminal part of tropomyosin alpha-3, P06753); endogenous in cells; host or cells: KM12 colon cancer cells; the other entry of the earlier key: TPM3 (P06753, Tropomyosin alpha-3 chain)
Test: TPM3-TRKA fusion protein levels in KM12 cells (Western blot)
Type: cell-based
Details: 16 h; TPM3-TRKA degradation in KM12 cells at 10 nM compound, category of percentage degradation; read-out: Degradation (at 10 nM)
Experimental endpoint: percent degradation of TPM3-TRKA protein at 0.01 µM

| Compound | Measurement target | Result |
| --- | --- | --- |
| Cn1c(=O)n(C2CCC(=O)NC2=O)c2ccc(N3CC(CN4CCN(c5cccc(-c6cnc7ccc(N8CCC[C@@H]8c8cccc(F)c8)nn67)n5)CC4)C3)cc21 (stereo partly drawn) [TR-250] | TPM3-TRKA fusion protein (Homo sapiens, UniProt P04629) | > 80% |
| O=C1CCC(N2C(=O)c3ccc(NCCCCCC(=O)N4CCN(c5cccc(-c6cnc7ccc(N8CCC[C@@H]8c8cccc(F)c8)nn67)n5)CC4)cc3C2=O)C(=O)N1 (stereo partly drawn) [TR-122] | TPM3-TRKA fusion protein (Homo sapiens, UniProt P04629) | > 80% |
| O=C(CN1CCN(c2ccc(C(=O)Nc3n[nH]c4ccc(Cc5cc(F)cc(F)c5)cc34)c(NC3CCOCC3)c2)CC1)NCCOCCOCCOCCNc1ccc2c(c1)C(=O)N(C1CCC(=O)NC1=O)C2=O (stereo not drawn) [TR-163] | TPM3-TRKA fusion protein (Homo sapiens, UniProt P04629) | > 80% |
| O=C1CCC(n2c(=O)oc3c(NCCN4CCN(c5cccc(-c6cnc7ccc(N8CCC[C@@H]8c8cccc(F)c8)nn67)n5)CC4)cccc32)C(=O)N1 (stereo partly drawn) [TR-247] | TPM3-TRKA fusion protein (Homo sapiens, UniProt P04629) | > 80% |
| O=C1CCC(N2Cc3ccc(NCCN4CCN(c5cccc(-c6cnc7ccc(N8CCC[C@@H]8c8cccc(F)c8)nn67)n5)CC4)cc3C2=O)C(=O)N1 (stereo partly drawn) [TR-196] | TPM3-TRKA fusion protein (Homo sapiens, UniProt P04629) | 50 to 80% |
| Cc1ncsc1-c1ccc(CNC(=O)[C@@H]2C[C@@H](O)CN2C(=O)[C@@H](NC(=O)COCC(=O)N2CCN(c3ccc(C(=O)Nc4n[nH]c5ccc(Cc6cc(F)cc(F)c6)cc45)c(NC4CCOCC4)c3)CC2)C(C)(C)C)cc1 [CPD-045] | TPM3-TRKA fusion protein (Homo sapiens, UniProt P04629) | 50 to 80% |
